System: LOX IMVI melanoma
Assay: NCI tumour cell line growth inhibition, 48 h
reported property: TGI

compound	TGI
CCCCCCCCOCC(O)CO (stereo unspecified)	> 100 µM
O/N=C1\CC2(N3CCOCC3)CCC1(c1ccccc1)CC2	> 100 µM
COCCOC(=O)NCn1cc(-c2ccccc2)nn1	> 100 µM

I would be grateful if you could provide TGI for each of the following entries.
1. Cc1csc(NNC(N)=O)n1
2. COc1ccc(/C=C2\C[C@H]3[C@@H]4CC=C5C[C@@H](OC(C)=O)CC[C@]5(C)[C@H]4CC[C@]3(C)\C2=N\O)cc1OC
3. Cc1ccc(/C=C2/N=C(N/N=C\C(O)C(O)C(O)CO)NC2=O)cc1 (stereo unspecified)

1: > 100 µM; 2: > 100 µM; 3: > 100 µM

* * *

Test system: M14 melanoma
Test: NCI tumour cell line growth inhibition, 48 h
Provide the reported TGI of each item.

molecule	TGI
CCC1C(C#N)=C(O)NC(O)=C1C#N	> 100 µM
Clc1cc2ccccc2c2ccccc12	> 100 µM
CC1(C)CCCC2(C)C3C(O)CC2(C)C(O)C31 (configuration not stated)	> 100 µM
Nc1c(OCC(=O)O)ccc2cc(S(=O)(=O)O)ccc12	> 100 µM
CC(=O)Oc1ccc2c(c1)[C@@]1(C)CCCC(C)(C)[C@@H]1CC2	33.7 µM

I would be grateful if you could provide TGI for each of the following entries.
1. CC1C2CCC3C(O)C2(CC(O)C2(O)C1CC(O)C2(C)C)CC3(C)O (configuration not stated)
2. CCOC(=O)c1nc2ccccc2n(CC)c1=O

["> 100 µM", "> 100 µM"]

I would be grateful if you could provide TGI for each of the following entries.
1. N#Cc1cc2c(cc1C#N)/C(=N\c1cccc(N)n1)N=C2Nc1cccc(N)n1
2. O/N=C1\CC2(N3CCOCC3)CCC1(c1ccccc1)CC2

34.1 µM
> 100 µM

I would be grateful if you could provide TGI for each of the following entries.
1. COc1cc2oc(=O)cc(C)c2c(OC)c1O
2. C=C1CCCC(C)(C)[C@H]1C/C=C1\CCOC1=O

1. > 100 µM
2. 34 µM

I would be grateful if you could provide TGI for each of the following entries.
1. COc1cc2c(oc(=O)c3c4occc4cc(OC)c23)c2cccc(OCc3ccccc3)c12
2. O=C1N2Cc3c4ccc5c3CN3C(=O)N6Cc7c(ccc(c7CN1C6(c1ccccc1)C23c1ccccc1)OCCOCCOc1cc(Br)c(Br)cc1OCCOCCO4)OCCOCCOc1cc(Br)c(Br)cc1OCCOCCO5 (configuration not stated)
3. O=C(O)c1cc2ccccc2c2c3c(ccc12)OCO3
4. O=C1CC(c2c(-c3ccccc3)[nH]c3ccccc23)C(=O)N1c1ccccc1 (configuration not stated)
5. O=C1NC(N2CCCC(CO)C2)=N/C1=C\c1ccccc1 (configuration not stated)

> 100 µM
> 100 µM
493 µM
> 100 µM
> 100 µM

* * *

System: MCF7 breast
Experiment: NCI tumour cell line growth inhibition, 48 h
Provide the reported TGI of each item.
Numbers only, in µM.

I would be grateful if you could provide TGI for each of the following entries.
1. CC(=O)Nc1ccc2c3c(cc(O)c2c1)N(C(=O)CCCCC(=O)N1CC(CCl)c2c1cc(O)c1cc(NC(C)=O)ccc21)CC3CCl (stereo not given)
2. N#CCCN(CCC#N)c1ccc(C(N=Nc2ccc(Cl)cc2)=Nc2ccccc2)cc1

1. 0.264
2. 28.2
